System: NCI-H23 lung
Experiment: NCI-60 one-dose screen, 48 h
Details: 10 µM unless noted
About 83,000 compounds went through this panel and 20% of them were active in at least one assay; those are over-represented in the sample as a whole. Activity calls are given as the source filed them. How the source made its calls: active means growth percent below 10; inactive means the rest.
Outcome codes: 1 for active, -1 for inactive

CC(=O)Nc1ccc(-c2cn(-c3cccc(C(=O)Nc4ccc(N5CCN(C)CC5)cc4)c3)nn2)cn1; -1
N#Cc1c(-c2ccc(Br)cc2)nc2n[nH]c(-c3ccc(Br)cc3)c2c1-c1ccc(C(F)(F)F)cc1; -1
CCCCn1c(O)c(N=Nc2nc(-c3cc4ccccc4oc3=O)cs2)c2cc(Br)ccc21; -1
COc1c(F)ccc(C(=O)Nc2ccc3nc(NC(=O)C4CCCN(S(=O)(=O)c5cccc(Br)c5)C4)sc3c2)c1F (stereo not drawn); -1
C[C@H]1CN(C(=O)c2ccc3c(NNC(=O)c4ccncn4)nc4cc(F)c(F)cc4n23)CCN1; -1
COc1ccc(NC(=O)Cn2c(O)c(N=Nc3ccc(S(N)(=O)=O)cc3)c3ccccc32)cc1; -1
O=C(c1ccc(OCCN2CCOCC2)cc1)C1[C@H](c2ccc(Cl)cc2)[C@@H](c2ccccc2)NC12C(=O)Nc1ccc(Cl)cc12 (stereo partly drawn); -1
Cc1ccc(S(=O)(=O)c2nc(S(=O)(=O)c3ccc(C)cc3)c(N3CCN(C)CC3)s2)cc1; -1
O=C(/C=C/c1ccc(O)c(O)c1)NC1CCOC1O (stereo not drawn); -1
CC1CN(c2oc(-c3ccc([N+](=O)[O-])cc3)nc2C#N)CC(C)O1 (stereo not drawn); -1
O=c1cc(-c2ccccc2)oc2cc(OCCCC[P+](c3ccccc3)(c3ccccc3)c3ccccc3)cc(O)c12; 1
O=c1oc2ccc(Br)cc2cc1C1=CSc2nc3sc4c(c3c(=O)n2N=C1)CCCC4; -1
O=C(Cn1c2c(sc1=O)[C@H]1[C@@H](O)[C@@H](O)[C@H](O)[C@@H]1CS2)N1CCOCC1; -1
CCCCNC(=S)Nc1ccc(OCc2nc3ccccc3[nH]2)cc1; -1
O=C(N=Nc1c(O)[nH]c2ccc(Cl)cc12)c1ccc2nc(-c3ccccc3)[nH]c2c1; -1
COc1ccc2[nH]c(=O)c(CSc3nccc(-c4ccc(OC)c(OC)c4)n3)cc2c1; -1
CCOC(=O)COc1c(OC)c(OC)cc2oc(-c3cccc(C(=O)Nc4ccc(Cl)cc4)c3)cc(=O)c12; -1
Cc1ccc(Cc2cnc(NC(=O)c3ccc(/C=C4\SC(=S)N(C)C4=O)cc3)s2)cc1; -1
Cc1cc(C)cc(C(=O)Nc2cccc(-c3cn(-c4ccc(S(N)(=O)=O)cc4)nn3)c2)c1; 1
CC(=O)Nc1ccc(C(=O)NC(=S)Nc2ccc(S(N)(=O)=O)cc2)cc1; -1
O=C(/C=C/c1ccc(-c2ccccc2)cc1)c1nc2ccccc2n1Cc1ccc(F)cc1; -1
COC1=C[C@]23CCC(=O)N2CCc2cc4c(cc2[C@@H]3[C@@H]1OC(=O)[C@H](C)O)OCO4; 1
N#Cc1c(-c2ccccc2Cl)cc(-c2c[nH]c3ccccc23)[nH]c1=O; -1

----------
System: DU-145 prostate
Assay: NCI-60 one-dose screen, 48 h
Conditions: 10 µM unless noted
Compounds without any hit were thinned out: in the full panel of roughly 83,000, 20% have a hit. Activity calls are given as the source filed them. Rule for the calls: active = growth percent below 10; inactive = the rest.
Outcome codes: active, inactive

Nc1nc(-c2ccccc2)c(N=Nc2ccc([N+](=O)[O-])cc2Cl)s1; inactive
COc1ccc2[nH]cc(-c3nnc(N)nc3-c3c[nH]c4ncc(Br)cc34)c2c1; inactive
Nc1cc2ccccc2c(=O)n1NC(=O)c1ccc(I)cc1; inactive
Cc1ccc(-c2nnc3ccc(N/N=C/c4ccccc4)nn23)cc1; inactive
C#CCOc1ccc(/C=N/Nc2nc(-c3ccc(F)cc3)cs2)cc1OC; inactive
COC1=C[C@]23CCC(=O)N2CCc2cc4c(cc2[C@@H]3[C@@H]1OC(=O)[C@H](C)O)OCO4; inactive
CN(C)CCOc1ccc(C(=O)C2[C@H](c3ccc(Cl)cc3)[C@@H](c3ccccc3)NC23C(=O)Nc2ccccc23)cc1 (stereo partly drawn); inactive
O=C1Nc2cc(Cl)ccc2/C1=C/c1cccc(OCc2ccccn2)c1; active
CC1CCCCN1CCCNC(=O)N/C(N)=N/c1nc2ccccc2s1 (stereo not drawn); inactive
Cn1cc(-c2nc(N)nnc2-c2c[nH]c3ccc(F)cc23)c2cc(Br)cnc21; inactive
COc1cc2c(c(OC)c1OC)C(=O)CC(c1cccc(NC(=O)c3cc(NC(=O)[C@H](CO)NC(=O)OC(C)(C)C)ccc3Cl)c1)O2 (stereo partly drawn); inactive
O=C1C(=Nc2ccc(F)c(Cl)c2)c2cccc3cccc1c23; inactive
CCCSc1nc(NCCc2c[nH]c3ccccc23)c(C#N)c(-c2ccc(OC)cc2)n1; inactive

----------
Test system: HCT-116 colon
Test: NCI-60 one-dose screen, 48 h
Conditions: 10 µM unless noted
Description: Growth inhibition of the HCT-116 human tumor cell line is measured as a screen for anti-cancer activity. Cells are grown in 96 well plates and exposed to the test compound for 48 hours. Compounds are tested at a single concentration, which is 10^-5 M for most compounds. The reported endpoint is percent growth (GI% or GIPRCNT), where numbers from 0 - 100% represent growth inhibition, and numbers from -100% - 0 represent cell death. For example, a value of 40 represents 60% growth inhibition. […]
The panel holds about 83,000 compounds, 20% with a hit somewhere; the sample as a whole holds those more often. The source made the active and inactive calls. How the source made its calls: active means growth percent below 10; inactive means the rest.
Outcome codes: active, inactive

COc1cc2oc(-c3cccc(NC(=O)[C@H](Cc4ccccc4)NC(=O)OC(C)(C)C)c3)cc(=O)c2c(OC)c1OC; inactive
CCC(C)(C)c1ccc(OCCCCN2CCN(c3ccncc3)CC2)cc1; active
CNC(=O)c1cccc(NC(=O)c2ccc3c(c2)nnn3/C(C#N)=C/c2ccccn2)c1; active
O=C(CN1C(=O)/C(=C/c2ccccc2Cl)SC1=S)N1CCOCC1; inactive
CCOC(=O)/C=C/c1cccc2c1C(=O)NC(C)(c1cc3cc(Cl)ccc3oc1=O)N2 (stereo not given); inactive
COc1ccc(C(=O)/C=C/c2ccccc2Br)cc1S(N)(=O)=O; active
O=c1[nH]c(=O)c2c(-c3cc4ccccc4oc3=O)ccnc2[nH]1; inactive
COc1ccc(C2=NN(c3ccccc3)C(c3ccc(OC)c(OCc4ccccc4)c3)C2)cc1OC (stereo not given); inactive
CC1(C)CC[C@]2(C(=O)Nc3ccc(Br)cc3)CC[C@]3(C)C(=CCC4[C@@]5(C)C[C@@H](O)[C@H](O)[C@@](C)(CO)C5CC[C@]43C)C2C1 (stereo not given in full); active
O=C(Cn1c(/C=C/c2ccccc2)nc2ccccc2c1=O)Nc1ccccc1; inactive
O=c1cc(-c2ccccc2)oc2cc(OCCCC[P+](c3ccccc3)(c3ccccc3)c3ccccc3)cc(O)c12; active
COc1cc(CNC(=O)/C=C/c2ccc3c(c2)OCO3)ccc1OCc1cn(-c2cccc(C(F)(F)F)c2)nn1; active
COC(=O)/C=C/c1cccc2c1C(=O)NC(C)(c1cc3cc4ccccc4cc3oc1=O)N2 (stereo not given); inactive
CCOc1ccc(C(=O)NC(=S)Nc2ccc(S(N)(=O)=O)cc2)cc1; inactive
COc1cc2c(c(OC)c1OC)C(=O)CC(c1cccc(NC(=O)c3cccc(NC(=O)[C@H](C)NC(=O)OC(C)(C)C)c3)c1)O2 (stereo not given in full); inactive
O=C(C1=CNC(=S)NC1c1ccc(O)cc1)c1cc2ccccc2oc1=O (stereo not given); inactive
Cn1cc(-c2cc(N)n3nc(-c4cn(C)c5ncc(Br)cc45)cc3n2)c2cc(Br)cnc21; active
Cn1cc(-c2cc3nc(-c4c[nH]c5ccc(Cl)cc45)cc(N)n3n2)c2ccccc21; active
COc1ccccc1C(=O)NN1C(=O)/C(=C/C2=Cc3ccccc3OC2)SC1=S; inactive
COc1ccc2c(c1)c(-c1cc(N)n3nc(-c4cn(C)c5ccccc45)cc3n1)cn2C; active
Cn1cc(-c2nnc(N)nc2-c2c[nH]c3ccccc23)c2cccnc21; inactive
Cc1ccc(NC(=O)[C@]23CCC(C)(C)CC2C2=CCC4[C@@]5(C)C[C@@H](O)[C@H](O)[C@@](C)(CO)C5CC[C@@]4(C)[C@]2(C)CC3)cc1 (stereo not given in full); active
Cc1ccc([C@H]2C(C(=O)c3ccc(Cl)cc3)C3(N[C@@H]2c2ccccc2)C(=O)Nc2ccccc23)cc1 (stereo not given in full); inactive
COC(=O)/C=C/c1cccc2c1C(=O)NC(C)(c1cc3ccccc3oc1=O)N2 (stereo not given); inactive
CN(C)CCn1c2ccccc2c2nc3cc(C(F)(F)F)ccc3nc21; inactive
COc1cc(-c2cc(-c3cccc(OCC(=O)O)c3)[nH]c(=O)c2C#N)cc(OC)c1OC; inactive
CC(C)c1ccc2c(N)c(C(=O)Nc3cccc(C(F)(F)F)c3)sc2n1; inactive
Cc1cc2nc3c4ccccc4n(CCCN(C)C)c3nc2cc1C; active
C=C1CCC2C3(C)COC(c4ccco4)OC3CCC2(C)C1CC(Sc1ccccc1)C1=CCOC1=O (stereo not given); inactive
CCN(CC)c1ccc(/C=N/Nc2nc(-c3ccc(C)cc3)cs2)c(O)c1; inactive
